kinact/KI listing for selected compounds.
System tested: porcine pancreatic elastase (PPE) (Sus scrofa)
Construct: from tissue; host or cells: porcine pancreas (from the name)
Sequence (P00772 27-266): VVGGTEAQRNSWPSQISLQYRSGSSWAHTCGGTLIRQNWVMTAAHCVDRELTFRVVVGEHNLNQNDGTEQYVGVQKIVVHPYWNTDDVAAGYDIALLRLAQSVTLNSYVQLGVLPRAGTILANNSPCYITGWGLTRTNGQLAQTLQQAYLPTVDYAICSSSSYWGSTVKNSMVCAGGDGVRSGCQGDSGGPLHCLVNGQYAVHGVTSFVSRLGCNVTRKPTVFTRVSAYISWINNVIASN
Protocol summary: Inactivation of porcine pancreatic elastase (PPE)
Assay type: biochemical
Experimental parameters: Table IV; pH 7.5, 25° C; [I] 0.01 to 0.51 mM; read-out: kobs/[I]
Measurement name: kinact/KI (M⁻¹ s⁻¹)

# Compound, Assay result
records = [
    ("COc1oc(=O)c2cc(NC(=O)CN)ccc2c1Cl", 1960),
    ("N=C(N)SCCOc1oc(=O)c2ccccc2c1Cl", 270),
    ("COc1oc(=O)c2cc(NC(=N)N)ccc2c1Cl", 860),
    ("NCCCOc1oc(=O)c2ccccc2c1Cl", 70),
]
